- Test system: normal primary NK cells, pool 1 (3 donors) (IL-2 2.5 ng/mL);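 also: normalised to DMSO-only wells as negative and benzethonium chloride as positive control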
- Test: percent inhibition of viability; higher = more inhibition
- Assay Setup: 72 h; 1 nM
Reported Metric: percent inhibition of viability (%)
Respond numerically; units are % and should not be typed.

Compound | Reported Metric | Measured Result
CS(=O)(=O)CCNCc1ccc(-c2ccc3ncnc(Nc4ccc(OCc5cccc(F)c5)c(Cl)c4)c3c2)o1 [Lapatinib] (max concentration tested 1000 nM) | percent inhibition of viability | 11.7

Form entry - test system: normal primary NK cells, pool 1 (3 donors) (IL-2 2.5 ng/mL); read-out: percent inhibition of viability; compound: CC[C@]1(O)C[C@@H]2CN(CCc3c([nH]c4ccccc34)[C@@](C(=O)OC)(c3cc4c(cc3OC)N(C)[C@H]3[C@@](O)(C(=O)OC)[C@H](OC(C)=O)[C@]5(CC)C=CCN6CC[C@]43[C@@H]65)C2)C1 [Vinblastine] (max concentration tested 1000 nM);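 also: normalised to DMSO-only wells as negative and benzethonium chloride as positive control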
7.03
